# System: HeLa Kyoto
# assay notes: thermal stability score vs G1/S (z-score of summed log2 fold changes over temperatures); higher = more thermally stable than in G1/S
# condition description: cell cycle stage: early G1 (4.5 h after nocodazole release)
Overview of reported thermal stability score across a group of sequences:
Format: numeric value only, no unit, no commentary.

# return thermal stability score of MEEMSGESVVSSAVPAAATRTTSFKGTSPSSKYVKLNVGGALYYTTMQTLTKQDTMLKAMFSGRMEVLTDSEGWILIDRCGKHFGTILNYLRDGAVPLPESRREIEELLAEAKYYLVQGLVEECQAALQNKDTYEPFCKVPVITSSKEEQKLIATSNKPAVKLLYNRSNNKYSYTSNSDDNMLKNIELFDKLSLRFNGRVLFIKDVIGDEICCWSFYGQGRKIAEVCCTSIVYATEKKQTKVEFPEARIYEETLNILLYEAQDGRGPDNALLEATGGAAGRSHHLDEDEERERIERVRRIHIKRPDDRAHLHQ [KCTD10] (system: HeLa Kyoto) 0.937

# return thermal stability score of MSDEEARQSGGSSQAGVVTVSDVQELMRRKEEIEAQIKANYDVLESQKGIGMNEPLVDCEGYPRSDVDLYQVRTARHNIICLQNDHKAVMKQVEEALHQLHARDKEKQARDMAEAHKEAMSRKLGQSESQGPPRAFAKVNSISPGSPASIAGLQVDDEIVEFGSVNTQNFQSLHNIGSVVQHSEGKPLNVTVIRRGEKHQLRLVPTRWAGKGLLGCNIIPLQR [PSMD9] (system: HeLa Kyoto) -2.77

Continuing:
# return thermal stability score of MPVAVGPYGQSQPSCFDRVKMGFVMGCAVGMAAGALFGTFSCLRIGMRGRELMGGIGKTMMQSGGTFGTFMAIGMGIRC [ROMO1] (system: HeLa Kyoto) -0.746

# return thermal stability score of MAEPQPPSGGLTDEAALSCCSDADPSTKDFLLQQTMLRVKDPKKSLDFYTRVLGMTLIQKCDFPIMKFSLYFLAYEDKNDIPKEKDEKIAWALSRKATLELTHNWGTEDDETQSYHNGNSDPRGFGHIGIAVPDVYSACKRFEELGVKFVKKPDDGKMKGLAFIQDPDGYWIEILNPNKMATLM [GLO1] (system: HeLa Kyoto) -0.959

---

# System: HeLa Kyoto
# assay notes: melting temperature (median over replicates), in situ; higher = more thermally stable
# condition description: cell cycle stage: G1/S
quantity name: melting temperature (°C)
Write the answer as a number in °C, unit excluded.

Return melting temperature (reported value) for this sequence: MVDLTQVMDDEVFMAFASYATIILSKMMLMSTATAFYRLTRKVFANPEDCVAFGKGENAKKYLRTDDRVERVRRAHLNDLENIIPFLGIGLLYSLSGPDPSTAILHFRLFVGARIYHTIAYLTPLPQPNRALSFFVGYGVTLSMAYRLLKSKLYL [MGST1] 56.8

Return melting temperature (reported value) for this sequence: MAAAVSSVVRRVEELGDLAQAHIQQLSEAAGEDDHFLIRASAALEKLKLLCGEEKECSNPSNLLELYTQAILDMTYFEENKLVDEDFPEDSSSQKVKELISFLSEPEILVKENNMHPKHCNLLGDELLECLSWRRGALLYMYCHSLTKRREWLLRKSSLLKKYLLDGISYLLQMLNYRCPIQLNEGVSFQDLDTAKLLSAGIFSDIHLLAMMYSGEMCYWGSKYCADQQPENHEVDTSVSGAGCTTYKEPLDFREVGEKILKKYVSVCEGPLKEQEWNTTNAKQILNFFHHRCN [C5ORF51] 49.5

Return melting temperature (reported value) for this sequence: MQPPPPGPLGDCLRDWEDLQQDFQNIQETHRLYRLKLEELTKLQNNCTSSITRQKKRLQELALALKKCKPSLPAEAEGAAQELENQMKERQGLFFDMEAYLPKKNGLYLSLVLGNVNVTLLSKQAKFAYKDEYEKFKLYLTIILILISFTCRFLLNSRVTDAAFNFLLVWYYCTLTIRESILINNGSRIKGWWVFHHYVSTFLSGVMLTWPDGLMYQKFRNQFLSFSMYQSFVQFLQYYYQSGCLYRLRALGERHTMDLTVEGFQSWMWRGLTFLLPFLFFGHFWQLFNALTLFNLAQDPQCKEWQVLMCGFPFLLLFLGNFFTTLRVVHHKFHSQRHGSKKD [TMPIT] 54.2

Continuing:
Return melting temperature (reported value) for this sequence: MEAVLNELVSVEDLLKFEKKFQSEKAAGSVSKSTQFEYAWCLVRSKYNDDIRKGIVLLEELLPKGSKEEQRDYVFYLAVGNYRLKEYEKALKYVRGLLQTEPQNNQAKELERLIDKAMKKDGLVGMAIVGGMALGVAGLAGLIGLAVSKSKS [FIS1] 54.2

Return melting temperature (reported value) for this sequence: MAAAEEEPKPKKLKVEAPQALRENILFGMGNPLLDISAVVDKDFLDKYSLKPNDQILAEDKHKELFDELVKKFKVEYHAGGSTQNSIKVAQWMIQQPHKAATFFGCIGIDKFGEILKRKAAEAHVDAHYYEQNEQPTGTCAACITGDNRSLIANLAAANCYKKEKHLDLEKNWMLVEKARVCYIAGFFLTVSPESVLKVAHHASENNRIFTLNLSAPFISQFYKESLMKVMPYVDILFGNETEAATFAREQGFETKDIKEIAKKTQALPKMNSKRQRIVIFTQGRDDTIMATESEVTAFAVLDQDQKEIIDTNGAGDAFVGGFLSQLVSDKPLTECIRAGHYAASIIIRRTGCTFPEKPDFH [ADK] 56.3

Return melting temperature (reported value) for this sequence: MAVARLAAVAAWVPCRSWGWAAVPFGPHRGLSVLLARIPQRAPRWLPACRQKTSLSFLNRPDLPNLAYKKLKGKSPGIIFIPGYLSYMNGTKALAIEEFCKSLGHACIRFDYSGVGSSDGNSEESTLGKWRKDVLSIIDDLADGPQILVGSSLGGWLMLHAAIARPEKVVALIGVATAADTLVTKFNQLPVELKKEVEMKGVWSMPSKYSEEGVYNVQYSFIKEAEHHCLLHSPIPVNCPIRLLHGMKDDIVPWHTSMQVADRVLSTDVDVILRKHSDHRMREKADIQLLVYTIDDLIDKLSTIVN [ABHD10] 57.4

Return melting temperature (reported value) for this sequence: MSFLKSFPPPGPAEGLLRQQPDTEAVLNGKGLGTGTLYIAESRLSWLDGSGLGFSLEYPTISLHALSRDRSDCLGEHLYVMVNAKFEEESKEPVADEEEEDSDDDVEPITEFRFVPSDKSALEAMFTAMCECQALHPDPEDEDSDDYDGEEYDVEAHEQGQGDIPTFYTYEEGLSHLTAEGQATLERLEGMLSQSVSSQYNMAGVRTEDSIRDYEDGMEVDTTPTVAGQFEDADVDH [CLNS1A] 51.7

Return melting temperature (reported value) for this sequence: MAALKSWLSRSVTSFFRYRQCLCVPVVANFKKRCFSELIRPWHKTVTIGFGVTLCAVPIAQKSEPHSLSSEALMRRAVSLVTDSTSTFLSQTTYALIEAITEYTKAVYTLTSLYRQYTSLLGKMNSEEEDEVWQVIIGARAEMTSKHQEYLKLETTWMTAVGLSEMAAEAAYQTGADQASITARNHIQLVKLQVEEVHQLSRKAETKLAEAQIEELRQKTQEEGEERAESEQEAYLRED [DIABLO] 54.9

Return melting temperature (reported value) for this sequence: MSTAREQPIFSTRAHVFQIDPATKRNWIPAGKHALTVSYFYDATRNVYRIISIGGAKAIINSTVTPNMTFTKTSQKFGQWADSRANTVYGLGFASEQHLTQFAEKFQEVKEAARLAREKSQDGGELTSPALGLASHQVPPSPLVSANGPGEEKLFRSQSADAPGPTERERLKKMLSEGSVGEVQWEAEFFALQDSNNKLAGALREANAAAAQWRQQLEAQRAEAERLRQRVAELEAQAASEVTPTGEKEGLGQGQSLEQLEALVQTKDQEIQTLKSQTGGPREALEAAEREETQQKVQDLETRNAELEHQLRAMERSLEEARAERERARAEVGRAAQLLDVSLFELSELREGLARLAEAAP [HOMER3] 48.7

Return melting temperature (reported value) for this sequence: MPFLELDTNLPANRVPAGLEKRLCAAAASILGKPADRVNVTVRPGLAMALSGSTEPCAQLSISSIGVVGTAEDNRSHSAHFFEFLTKELALGQDRILIRFFPLESWQIGKIGTVMTFL [DDT] 56.1

Return melting temperature (reported value) for this sequence: MPRDNMASLIQRIARQACLTFRGSGGGRGASDRDAASGPEAPMQPGFPENLSKLKSLLTQLRAEDLNIAPRKATLQPLPPNLPPVTYMHIYETDGFSLGVFLLKSGTSIPLHDHPGMHGMLKVLYGTVRISCMDKLDAGGGQRPRALPPEQQFEPPLQPREREAVRPGVLRSRAEYTEASGPCILTPHRDNLHQIDAVEGPAAFLDILAPPYDPDDGRDCHYYRVLEPVRPKEASSSACDLPREVWLLETPQADDFWCEGEPYPGPKVFP [ADO] 54.1
